Biological target: 5-hydroxytryptamine receptor 2C (Homo sapiens, UniProt P28335)
Sequence (P28335 whole entry): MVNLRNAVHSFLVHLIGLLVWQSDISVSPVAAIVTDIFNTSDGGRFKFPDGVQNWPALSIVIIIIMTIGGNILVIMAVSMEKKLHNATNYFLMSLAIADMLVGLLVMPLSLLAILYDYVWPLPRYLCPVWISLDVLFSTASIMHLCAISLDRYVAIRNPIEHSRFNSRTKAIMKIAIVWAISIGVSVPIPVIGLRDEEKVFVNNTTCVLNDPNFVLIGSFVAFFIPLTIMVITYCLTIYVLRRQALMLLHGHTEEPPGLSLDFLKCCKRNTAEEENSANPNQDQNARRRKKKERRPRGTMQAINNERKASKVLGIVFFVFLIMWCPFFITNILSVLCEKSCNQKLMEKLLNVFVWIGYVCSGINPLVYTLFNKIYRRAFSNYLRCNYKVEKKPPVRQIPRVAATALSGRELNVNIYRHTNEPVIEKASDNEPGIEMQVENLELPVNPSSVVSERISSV
pKi: −log10 of the molar value.

>  <molecule>
CCCCCNC(=N)N/N=C/c1c[nH]c2ccc(OC)cc12 [TEGASEROD]

>  <pKi>
> 7.00

$$$$

* * *

Target: 5-hydroxytryptamine receptor 3A (Homo sapiens)
Sequence (P46098 whole entry): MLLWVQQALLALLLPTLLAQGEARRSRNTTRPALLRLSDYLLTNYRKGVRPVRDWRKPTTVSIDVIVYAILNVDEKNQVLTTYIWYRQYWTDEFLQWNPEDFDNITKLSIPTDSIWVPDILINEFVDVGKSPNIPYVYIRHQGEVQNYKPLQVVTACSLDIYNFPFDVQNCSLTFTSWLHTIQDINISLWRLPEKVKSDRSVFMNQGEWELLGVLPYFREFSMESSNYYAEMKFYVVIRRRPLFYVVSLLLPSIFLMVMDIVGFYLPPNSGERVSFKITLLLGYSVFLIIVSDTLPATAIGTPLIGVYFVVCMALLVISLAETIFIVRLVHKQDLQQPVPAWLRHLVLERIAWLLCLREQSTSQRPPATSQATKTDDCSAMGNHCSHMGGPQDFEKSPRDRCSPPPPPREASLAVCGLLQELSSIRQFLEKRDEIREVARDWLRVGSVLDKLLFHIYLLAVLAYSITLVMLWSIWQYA
Experiment: Binding affinity to serotonin 5-HT3 receptor (unknown origin)
measuredParameter: Ki (nM)

>  <molecule>
COc1cc(N)c(Cl)cc1C(=O)NC1CCN(CCCOc2ccc(F)cc2)CC1OC (racemic) [CISAPRIDE]

>  <resultUnit>
nM

>  <reportedMeasurement>
2000

$$$$

* * *

Molecular target: 5-hydroxytryptamine receptor 7 (Homo sapiens, UniProt P34969)
Sequence (P34969 whole entry): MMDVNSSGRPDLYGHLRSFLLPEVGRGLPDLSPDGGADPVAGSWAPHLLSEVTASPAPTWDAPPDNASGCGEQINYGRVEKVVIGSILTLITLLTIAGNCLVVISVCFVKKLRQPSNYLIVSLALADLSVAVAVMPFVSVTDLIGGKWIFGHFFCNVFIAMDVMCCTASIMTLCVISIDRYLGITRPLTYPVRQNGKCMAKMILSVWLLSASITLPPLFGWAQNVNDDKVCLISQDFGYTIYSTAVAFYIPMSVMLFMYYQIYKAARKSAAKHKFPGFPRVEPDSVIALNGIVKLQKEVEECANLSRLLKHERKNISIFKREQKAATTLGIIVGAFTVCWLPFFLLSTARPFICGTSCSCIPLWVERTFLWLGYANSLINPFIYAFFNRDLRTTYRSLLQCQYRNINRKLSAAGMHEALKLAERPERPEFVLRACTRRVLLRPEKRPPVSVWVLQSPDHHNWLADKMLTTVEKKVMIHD
Assay: Binding affinity to serotonin 5-HT7 receptor (unknown origin)

>  <compound>
CCCCCNC(=N)N/N=C/c1c[nH]c2ccc(OC)cc12 [TEGASEROD]

>  <Ki>
< 100 nM

$$$$
